Values compiled from ChEMBL document CHEMBL1133216.

pIC50: −log10 of the molar value.
Read-out record for UniProt:P23316: pIC50
Sequence (P23316 whole entry): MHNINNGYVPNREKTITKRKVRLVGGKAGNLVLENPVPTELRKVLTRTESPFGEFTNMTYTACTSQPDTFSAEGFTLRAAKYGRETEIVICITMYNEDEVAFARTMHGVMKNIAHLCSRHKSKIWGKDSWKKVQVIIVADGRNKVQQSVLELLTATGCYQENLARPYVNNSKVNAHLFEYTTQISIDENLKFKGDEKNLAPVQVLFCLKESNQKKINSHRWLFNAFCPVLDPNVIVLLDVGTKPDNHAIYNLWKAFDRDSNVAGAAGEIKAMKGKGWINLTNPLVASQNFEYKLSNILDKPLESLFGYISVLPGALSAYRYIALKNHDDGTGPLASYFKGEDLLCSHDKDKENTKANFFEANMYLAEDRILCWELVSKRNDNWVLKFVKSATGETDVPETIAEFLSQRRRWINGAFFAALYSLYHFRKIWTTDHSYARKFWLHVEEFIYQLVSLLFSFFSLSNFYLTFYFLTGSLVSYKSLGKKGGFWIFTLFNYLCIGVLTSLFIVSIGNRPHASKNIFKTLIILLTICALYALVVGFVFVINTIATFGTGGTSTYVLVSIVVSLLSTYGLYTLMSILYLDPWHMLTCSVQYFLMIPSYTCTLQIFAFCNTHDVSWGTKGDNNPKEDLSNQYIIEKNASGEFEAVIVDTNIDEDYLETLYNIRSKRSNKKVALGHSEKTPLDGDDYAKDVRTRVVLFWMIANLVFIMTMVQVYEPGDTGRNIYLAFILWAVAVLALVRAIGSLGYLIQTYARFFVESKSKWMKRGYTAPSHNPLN
MEASURED_QUANTITY: pIC50

CN(C/C=C\C#CC(C)(C)C)c1cccc2c1CCC(=O)N2 | 7.88
C[C@@H]([C@H](N)C(=O)N[C@H](C(=O)O)[C@H]1O[C@@H](n2ccc(=O)[nH]c2=O)[C@H](O)[C@@H]1O)[C@H](O)c1ccc(O)cn1 | 5.49
CN(CC#CC#CC(C)(C)C)c1cccc2c1CC(O)C(=O)N2 (centres undefined) | 8.52
CCCCN(C/C=C/C#CC(C)(C)C)c1cccc2c1CCC(=O)N2 | 9.46
CCCCCN(C/C=C/C#CC(C)(C)C)c1cccc2c1CCC(=O)N2 | 8.96
CC(C)(C)C#C/C=C/CN(Cc1ccccc1)c1cccc2c1CCC(=O)N2 | 7.27
CC(=O)Nc1cccc(NC/C=C/C#CC(C)(C)C)c1 | 6.00
CC(=O)N(C/C=C/C#CC(C)(C)C)c1cccc2c1CCC(=O)N2 | 6.11
CN(C/C=C/C#CC(C)(C)C)c1cccc2c1CCC(=O)N2 | 8.56
